- target: Ba/F3 stable cells (Homo sapiens, UniProt P00533, DUP767-769, cells depend on it)
- Construct: EC50 Ba/F3-EGFR V769-D770insASV; other: Ba/F3-EGFR V769-D770insASV cells, 72 h, CCK-8
- Sequence (P00533 with tags, fused parts or gaps DUP767-769): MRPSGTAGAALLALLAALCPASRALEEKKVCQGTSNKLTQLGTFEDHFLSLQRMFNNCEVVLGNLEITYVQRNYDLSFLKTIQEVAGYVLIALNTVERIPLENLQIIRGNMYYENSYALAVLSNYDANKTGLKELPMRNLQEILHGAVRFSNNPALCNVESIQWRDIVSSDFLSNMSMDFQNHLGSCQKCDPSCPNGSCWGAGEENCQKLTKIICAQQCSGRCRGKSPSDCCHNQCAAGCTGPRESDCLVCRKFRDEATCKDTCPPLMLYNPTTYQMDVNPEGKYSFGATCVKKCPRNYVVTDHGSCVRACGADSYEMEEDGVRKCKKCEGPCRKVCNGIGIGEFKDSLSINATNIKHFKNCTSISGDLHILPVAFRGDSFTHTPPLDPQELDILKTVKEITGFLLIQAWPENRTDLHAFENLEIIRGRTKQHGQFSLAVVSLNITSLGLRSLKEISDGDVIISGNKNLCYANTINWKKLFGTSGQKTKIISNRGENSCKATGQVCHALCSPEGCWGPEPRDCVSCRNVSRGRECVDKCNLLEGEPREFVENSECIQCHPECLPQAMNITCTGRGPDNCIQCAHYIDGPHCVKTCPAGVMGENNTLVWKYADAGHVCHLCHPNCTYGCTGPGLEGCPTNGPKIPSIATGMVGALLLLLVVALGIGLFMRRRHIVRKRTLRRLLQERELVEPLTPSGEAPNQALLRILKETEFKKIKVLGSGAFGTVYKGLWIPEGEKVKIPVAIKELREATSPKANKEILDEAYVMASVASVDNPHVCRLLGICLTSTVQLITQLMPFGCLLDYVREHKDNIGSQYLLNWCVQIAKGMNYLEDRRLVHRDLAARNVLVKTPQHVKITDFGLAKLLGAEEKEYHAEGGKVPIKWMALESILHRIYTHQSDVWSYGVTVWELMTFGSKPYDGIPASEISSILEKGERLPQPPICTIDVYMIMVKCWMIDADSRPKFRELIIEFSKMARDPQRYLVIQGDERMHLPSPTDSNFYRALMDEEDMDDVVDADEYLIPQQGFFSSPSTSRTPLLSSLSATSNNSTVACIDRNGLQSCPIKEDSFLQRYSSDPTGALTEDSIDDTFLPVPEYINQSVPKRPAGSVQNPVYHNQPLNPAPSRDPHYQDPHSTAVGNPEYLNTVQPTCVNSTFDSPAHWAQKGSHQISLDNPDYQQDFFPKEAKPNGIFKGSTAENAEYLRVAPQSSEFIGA
- assay-details: EC50 assay: Ba/F3 stable cell proliferation (CCK-8, 72 h)
- study-conditions: Ba/F3-EGFR V769-D770insASV cells
Counter-ions that a name gives are not always drawn.
recorded-endpoint: EC50

Consider the worked cases shown below.
molecule | recorded-endpoint | value-measured
COc1cc2ncnc(Nc3ccc(Cl)c(Cl)c3F)c2c([N+](=O)[O-])c1OC1CCNCC1 [Compound 207, hydrochloride] | EC50 | 0.2 to 1 µM
C#CC(=O)N1CCC(Oc2cc3c(Nc4ccc5ccccc5c4)ncnc3cc2OC)CC1 | EC50 | ≤ 0.2 µM
C=CS(=O)(=O)N1CCC(Oc2cc3c(C(=O)c4ccc(Cl)c(Cl)c4F)ncnc3cc2OC)CC1 | EC50 | 0.2 to 1 µM
C=CC(=O)N1CCC(Oc2cc3c(Nc4ccc5[nH]ncc5c4)ncnc3cc2OC)CC1 | EC50 | 0.2 to 1 µM
COc1cc2ncnc(Nc3ccc(Cl)c(Cl)c3F)c2cc1OC1CC(N(C)C#N)C1 (centres unmarked) | EC50 | ≤ 0.2 µM
C=CC(=O)NC1CC(Oc2cc3c(Nc4ccc(F)c(C#N)c4)ncnc3cc2OC)C1 (centres unmarked) | EC50 | > 1 µM
C=CC(=O)N1CC(c2cc3c(Nc4ccc(Cl)c(Cl)c4F)ncnc3cc2OCCCN2CCOCC2)C1 | EC50 | ≤ 0.2 µM

The observed EC50 for C=CC(=O)N1CC(c2cc3c(Nc4cccc5ccccc45)ncnc3cc2OC)C1 when tested with Ba/F3 stable cells (Homo sapiens, UniProt P00533, DUP767-769, cells depend on it) stands at ≤ 0.2 µM

----------
- target: Ba/F3 stable cells (Homo sapiens, UniProt P00533, INS763FQEA, cells depend on it)
- Construct: EC50 Ba/F3-EGFR A763-Y764insFQEA; other: Ba/F3-EGFR A763-Y764insFQEA cells, 72 h, CCK-8
- Sequence (P00533 with tags, fused parts or gaps INS763FQEA): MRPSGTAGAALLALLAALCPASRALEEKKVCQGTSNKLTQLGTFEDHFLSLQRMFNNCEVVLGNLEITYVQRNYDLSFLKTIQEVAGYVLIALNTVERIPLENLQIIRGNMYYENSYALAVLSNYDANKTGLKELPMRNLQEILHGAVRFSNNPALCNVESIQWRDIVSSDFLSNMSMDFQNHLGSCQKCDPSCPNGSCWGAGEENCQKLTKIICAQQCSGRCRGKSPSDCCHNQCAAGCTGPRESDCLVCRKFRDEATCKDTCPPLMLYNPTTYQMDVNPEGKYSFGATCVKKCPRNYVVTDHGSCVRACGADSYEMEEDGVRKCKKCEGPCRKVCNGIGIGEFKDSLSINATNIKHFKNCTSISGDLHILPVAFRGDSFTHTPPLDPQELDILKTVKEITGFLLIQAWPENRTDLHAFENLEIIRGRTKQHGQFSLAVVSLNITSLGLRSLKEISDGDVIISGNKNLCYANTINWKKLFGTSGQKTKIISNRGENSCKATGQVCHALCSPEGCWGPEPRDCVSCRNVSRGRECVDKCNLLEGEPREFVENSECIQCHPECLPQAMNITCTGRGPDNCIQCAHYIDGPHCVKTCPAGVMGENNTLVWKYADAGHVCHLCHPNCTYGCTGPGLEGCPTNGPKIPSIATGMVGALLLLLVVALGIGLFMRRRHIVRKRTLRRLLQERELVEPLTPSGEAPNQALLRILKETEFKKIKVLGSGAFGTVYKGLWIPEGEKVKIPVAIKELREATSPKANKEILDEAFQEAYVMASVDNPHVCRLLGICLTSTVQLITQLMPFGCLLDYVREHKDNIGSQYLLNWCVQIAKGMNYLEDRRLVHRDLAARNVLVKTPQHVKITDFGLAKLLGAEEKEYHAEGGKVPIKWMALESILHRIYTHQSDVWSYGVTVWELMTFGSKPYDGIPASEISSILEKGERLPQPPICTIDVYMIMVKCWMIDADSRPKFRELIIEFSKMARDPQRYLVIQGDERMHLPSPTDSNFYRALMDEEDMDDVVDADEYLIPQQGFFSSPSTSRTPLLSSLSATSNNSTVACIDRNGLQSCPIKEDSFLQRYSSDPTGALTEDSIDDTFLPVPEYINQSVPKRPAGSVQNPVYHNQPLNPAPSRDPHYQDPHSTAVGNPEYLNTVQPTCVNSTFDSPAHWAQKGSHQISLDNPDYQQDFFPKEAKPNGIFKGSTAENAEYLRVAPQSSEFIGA
- assay-details: EC50 assay: Ba/F3 stable cell proliferation (CCK-8, 72 h)
- study-conditions: Ba/F3-EGFR A763-Y764insFQEA cells
recorded-endpoint: EC50

Consider the worked cases shown below.
compound | recorded-endpoint | value-measured
C=CC(=O)N1CC(c2cc3c(Nc4ccc(Cl)c(Cl)c4F)ncnc3cc2OCC)C1 | EC50 | ≤ 200 nM
C=CC(=O)N1CCC(Oc2cc3c(C(=O)c4ccc(OC)cc4)ncnc3cc2OC)CC1 | EC50 | > 1000 nM
C#CC(=O)N1C2CCCC1CC(Oc1cc3c(Nc4ccc5ccccc5c4)ncnc3cc1OC)C2 (centres unmarked) | EC50 | ≤ 200 nM
C=CC(=O)N1CCC(Oc2cc3c(Nc4cc5oc6ccccc6c5cc4OC)ncnc3cc2OC)CC1 | EC50 | > 1000 nM
C#CC(=O)N1CC(c2cc3c(Nc4ccc(OCc5ccccc5)c(Cl)c4F)ncnc3cc2OC)C1 | EC50 | 200 to 1000 nM
C=CC(=O)N1CC(c2cc3c(NCc4ccc(F)cc4)ncnc3cc2OC)C1 | EC50 | ≤ 200 nM
C=CC(=O)NC1CC(Oc2cc3c(Nc4ccc(F)c(Cl)c4Cl)ncnc3cc2OC)C1 (centres unmarked) | EC50 | ≤ 200 nM

Moving on to the next compound.
The reported EC50 of the compound C=CC(=O)N1CCC(Oc2c(OC)cc3ncnc4c3c2NC(=O)N4c2ccc(Cl)c(Cl)c2F)CC1 was ≤ 200 nM

----------
- target: Ba/F3 stable cells (Homo sapiens, UniProt P00533, T790M/L858R, cells depend on it)
- Construct: EC50 Ba/F3-EGFR L858R-T790M; other: Ba/F3-EGFR L858R-T790M cells, 72 h, CCK-8
- Sequence (P00533 whole entry T790M/L858R): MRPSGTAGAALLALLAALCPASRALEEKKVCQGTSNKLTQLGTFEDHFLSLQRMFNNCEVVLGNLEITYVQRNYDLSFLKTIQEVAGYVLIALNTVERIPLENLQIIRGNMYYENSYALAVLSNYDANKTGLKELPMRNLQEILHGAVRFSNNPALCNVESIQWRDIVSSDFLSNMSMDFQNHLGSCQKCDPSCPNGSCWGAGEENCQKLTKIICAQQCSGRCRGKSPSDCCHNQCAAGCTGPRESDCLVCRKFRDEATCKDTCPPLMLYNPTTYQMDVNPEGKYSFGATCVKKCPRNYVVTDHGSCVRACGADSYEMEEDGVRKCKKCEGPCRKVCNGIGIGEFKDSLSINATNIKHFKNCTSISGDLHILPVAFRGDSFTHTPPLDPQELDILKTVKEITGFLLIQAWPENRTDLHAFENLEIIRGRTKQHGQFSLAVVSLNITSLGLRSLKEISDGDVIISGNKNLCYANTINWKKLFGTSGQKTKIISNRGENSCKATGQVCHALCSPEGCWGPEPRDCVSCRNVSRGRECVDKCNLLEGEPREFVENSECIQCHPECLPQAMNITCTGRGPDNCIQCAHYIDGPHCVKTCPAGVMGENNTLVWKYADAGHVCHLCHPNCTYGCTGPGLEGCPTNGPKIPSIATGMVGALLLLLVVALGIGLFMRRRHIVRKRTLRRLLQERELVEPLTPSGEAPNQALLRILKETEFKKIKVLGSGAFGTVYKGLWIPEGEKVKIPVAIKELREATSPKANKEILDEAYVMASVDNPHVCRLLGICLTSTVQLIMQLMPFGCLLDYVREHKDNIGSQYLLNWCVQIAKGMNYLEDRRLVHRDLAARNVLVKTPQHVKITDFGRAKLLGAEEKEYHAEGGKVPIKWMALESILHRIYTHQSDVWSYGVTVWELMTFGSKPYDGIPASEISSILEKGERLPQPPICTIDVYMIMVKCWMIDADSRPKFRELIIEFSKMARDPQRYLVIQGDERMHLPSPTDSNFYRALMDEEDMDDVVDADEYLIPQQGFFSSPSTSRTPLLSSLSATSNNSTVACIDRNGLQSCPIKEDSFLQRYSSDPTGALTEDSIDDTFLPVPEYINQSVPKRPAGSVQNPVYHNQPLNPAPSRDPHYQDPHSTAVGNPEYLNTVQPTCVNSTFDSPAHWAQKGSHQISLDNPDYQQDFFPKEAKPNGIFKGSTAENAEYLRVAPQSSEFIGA
- assay-details: EC50 assay: Ba/F3 stable cell proliferation (CCK-8, 72 h)
- study-conditions: Ba/F3-EGFR L858R-T790M cells
recorded-endpoint: EC50

Consider the worked cases shown below.
compound | EC50
C=CC(=O)N1CCC(Oc2cc3c(Nc4nc5cc(Cl)ccc5o4)ncnc3cc2OC)CC1 | > 1000 nM
C=CC(=O)N1CCC(Oc2cc3c(NCc4ccccc4)ncnc3cc2OC)CC1 | 200 to 1000 nM
C=CC(=O)N1CC(Oc2c(OC)cc3ncnc4c3c2NC(=O)N4c2ccc(Cl)c(Cl)c2F)C1 | ≤ 200 nM
C=CC(=O)NC1CC(Oc2cc3c(Nc4ccc(F)c(Cl)c4)ncnc3cc2OC)C1 (stereo not shown) | > 1000 nM
C=CC(=O)N1CCCC(c2ccc3ncnc(Nc4ccc(Cl)c(Cl)c4F)c3c2)C1 (stereo not shown) | > 1000 nM
C=CC(=O)N1CCC(Oc2cc3c(NCc4cc(Cl)cc(Cl)c4)ncnc3cc2OC)CC1 | 200 to 1000 nM
C=CC(=O)N1CCC(Oc2cc3c(C(=O)NCc4ccc(F)cc4)ncnc3cc2OC)CC1 | > 1000 nM
C=CC(=O)N1CC(c2cc3c(Nc4ccc5ccccc5c4)ncnc3cc2OC)C1 | 200 to 1000 nM
C=CC(=O)N1CCC(Oc2cc3c(Nc4ccc5c(c4)CCN5S(C)(=O)=O)ncnc3cc2OC)CC1 | > 1000 nM
C=CC(=O)N[C@H]1C[C@H](Oc2cc3c(Nc4ccc(Cl)c(Cl)c4F)ncnc3cc2OC)C1 | > 1000 nM

The reported EC50 of the compound C#CC(=O)N[C@H]1C[C@H](Oc2cc3c(Nc4cccc5c4CCC5)ncnc3cc2OC)C1 was 200 to 1000 nM

The reported EC50 of the compound C=CC(=O)N1CCC(Oc2cc3c(NCc4cccc(I)c4)ncnc3cc2OC)CC1 was 200 to 1000 nM

The reported EC50 of the compound C=CC(=O)N1CCC(Oc2cc3c(NCc4cccc(C#N)c4)ncnc3cc2OC)CC1 was > 1000 nM

The reported EC50 of the compound C=CC(=O)N1CCC(Oc2cc3c(Nc4ccc5ccccc5c4)ncnc3cc2OC)CC1 was ≤ 200 nM

The reported EC50 of the compound C=CC(=O)NC1CC(Oc2cc3c(Nc4ccc5ccccc5c4)ncnc3cc2OC)C1 (stereo not shown) was > 1000 nM

The reported EC50 of the compound COc1cc2ncnc(Nc3ccc(Cl)c(Cl)c3F)c2cc1OC1CC(NC(=O)/C=C/CN(C)C)C1 (stereo not shown) was > 1000 nM

----------
- target: Ba/F3 stable cells (Homo sapiens, UniProt P00533, T790M/L858R, cells depend on it)
- Construct: EC50 Ba/F3-EGFR L858R-T790M; other: Ba/F3-EGFR L858R-T790M cells, 72 h, CCK-8
- assay-details: EC50 assay: Ba/F3 stable cell proliferation (CCK-8, 72 h)
- study-conditions: Ba/F3-EGFR L858R-T790M cells
Counter-ions that a name gives are not always drawn.
The entries below are paired with their reported EC50.

Consider the worked cases shown below.
molecule | EC50
C=CC(=O)N1CCC(Oc2c(OC)cc3ncnc(Nc4ccc(Cl)c(Cl)c4F)c3c2[N+](=O)[O-])CC1 | > 1000 nM
C=CC(=O)N1CCC(Oc2cc3c(NCc4ccc(Cl)c(Cl)c4)ncnc3cc2OC)CC1 | 200 to 1000 nM
C=CC(=O)N1CC(c2cc3c(Nc4ccc(Cl)c(Cl)c4F)ncnc3cc2OCCCN2CCOCC2)C1 | ≤ 200 nM
C=CC(=O)N1CCC(Oc2c(OC)cc3ncnc4c3c2NC(=O)N4c2ccc(Cl)c(Cl)c2F)CC1 | 200 to 1000 nM

The reported EC50 of the molecule C=CC(=O)N1CC(c2cc3c(NCc4cccc(Cl)c4)ncnc3cc2OC)C1 was 200 to 1000 nM

The reported EC50 of the molecule C=CC(=O)N1CCC(Oc2cc3c(Nc4cccc5cn[nH]c45)ncnc3cc2OC)CC1 was > 1000 nM

The reported EC50 of the molecule C#CC(=O)N1CCC(Oc2c(OC)cc3ncnc4c3c2NC(=O)N4c2ccc(Cl)c(Cl)c2)CC1 was ≤ 200 nM

The reported EC50 of the molecule C=CC(=O)N1CC(c2cc3c(Nc4ccc(Cl)c(Cl)c4F)ncnc3cc2O[C@H]2CCOC2)C1 was > 1000 nM

The reported EC50 of the molecule C=CS(=O)(=O)NC1CC(Oc2cc3c(Nc4ccc(Cl)c(Cl)c4F)ncnc3cc2OC)C1 (stereo not shown) was ≤ 200 nM

The reported EC50 of the molecule C=CC(=O)N1CCC(Oc2cc3c(Nc4cccc5[nH]ccc45)ncnc3cc2OC)CC1 was 200 to 1000 nM

The reported EC50 of the molecule C=CC(=O)N1CCC(Oc2cc3c(Nc4ccc5cnccc5c4)ncnc3cc2OC)CC1 was > 1000 nM

The reported EC50 of the molecule C=CC(=O)N1C2CCC1CC(Oc1cc3c(Nc4ccc(Cl)c(Cl)c4F)ncnc3cc1OC)C2 (stereo not shown) was ≤ 200 nM

The reported EC50 of the molecule COc1cc2ncnc(Nc3ccc(Cl)c(Cl)c3F)c2c([N+](=O)[O-])c1OC1CCNCC1 [Compound 207, hydrochloride] was 200 to 1000 nM

The reported EC50 of the molecule C=CC(=O)NC1CC(Oc2cc3c(Nc4cccc5c4CCC5)ncnc3cc2OC)C1 (stereo not shown) was > 1000 nM

The reported EC50 of the molecule C=CC(=O)N1CCC(Oc2cc3c(Nc4ccc5cn[nH]c5c4)ncnc3cc2OC)CC1 was > 1000 nM

The reported EC50 of the molecule C=CC(=O)N1CCC(Oc2cc3c(NCc4cc(F)cc(Cl)c4)ncnc3cc2OC)CC1 was 200 to 1000 nM
